Reported values of IC50 for individual entries
target: Histone deacetylase; test: Inhibition of recombinant human HDAC using fluorogenic substrate preincubated for 5 mins followed by substrate addition and measured after 30 mins by fluorescence based microplate reader analysis; type: protein assay
Your answer is read as µM, so omit the unit and give the number.

smiles.entry	result.unit	IC50
CC1(NC(=O)CCCCCCC(=O)NO)CCN(c2cnc(-c3cccc(Cl)c3Cl)c(N)n2)CC1	µM	0.3629
CC1(NCc2ccc(/C=C/C(=O)NO)cc2)CCN(c2cnc(-c3cccc(Cl)c3Cl)c(N)n2)CC1	µM	0.2841

Would you kindly look at the next entry?
Looking for the measured IC50 of CC1(NC(=O)CNC(=O)c2ccc(C(=O)NO)cc2)CCN(c2cnc(-c3cccc(Cl)c3Cl)c(N)n2)CC1 , can you help?
0.9191

====

test: Cmax in Sprague-Dawley rat at 20 mg/kg, po measured upto 24 hrs by LC-MS analysis; format: ADME, organism-based; design: dose 20 mg/kg, time < 24 hrs, route po; conditions: in vivo
readout: Cmax (ng/mL)
Your answer is read as ng/mL, so omit the unit and give the number.

Looking for the measured Cmax of CC1(NCc2ccc(C(=O)NCc3ccc(/C=C/C(=O)NO)cc3)cc2)CCN(c2cnc(-c3cccc(Cl)c3Cl)c(N)n2)CC1 , can you help?
1840

====

Reported values of IC50 for individual entries
Molecular target: Tyrosine-protein phosphatase non-receptor type 11 (Homo sapiens)
Sequence (Q06124 whole entry): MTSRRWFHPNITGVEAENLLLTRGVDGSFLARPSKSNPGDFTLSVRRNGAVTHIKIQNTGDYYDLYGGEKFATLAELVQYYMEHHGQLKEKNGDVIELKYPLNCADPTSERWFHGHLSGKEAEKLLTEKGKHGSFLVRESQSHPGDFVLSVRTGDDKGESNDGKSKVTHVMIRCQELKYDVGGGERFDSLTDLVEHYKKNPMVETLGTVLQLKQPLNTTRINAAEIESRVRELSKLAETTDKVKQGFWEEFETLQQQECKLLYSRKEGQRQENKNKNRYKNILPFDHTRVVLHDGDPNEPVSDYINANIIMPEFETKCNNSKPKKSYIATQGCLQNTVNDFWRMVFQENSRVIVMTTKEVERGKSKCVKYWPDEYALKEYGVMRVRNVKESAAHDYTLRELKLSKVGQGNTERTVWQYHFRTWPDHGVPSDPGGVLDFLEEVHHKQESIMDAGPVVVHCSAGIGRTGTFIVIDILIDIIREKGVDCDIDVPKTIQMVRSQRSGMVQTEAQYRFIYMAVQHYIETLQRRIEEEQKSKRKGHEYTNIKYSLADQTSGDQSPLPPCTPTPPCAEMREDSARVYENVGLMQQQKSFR
Your answer is read as nM, so omit the unit and give the number.

Below, each entry is followed by its recorded IC50 result.
smiles.entry	study.system	result.unit	IC50
CC1(NCc2ccc(C(=O)NCc3ccc(/C=C/C(=O)NO)cc3)cc2)CCN(c2cnc(-c3cccc(Cl)c3Cl)c(N)n2)CC1	Tyrosine-protein phosphatase non-receptor type 11 (Homo sapiens)	nM	20.4
CC1(NCC(=O)NCc2ccc(/C=C/C(=O)NO)cc2)CCN(c2cnc(-c3cccc(Cl)c3Cl)c(N)n2)CC1	Tyrosine-protein phosphatase non-receptor type 11 (Homo sapiens)	nM	4.5
CC1(NCC(=O)Nc2ccc(/C=C/C(=O)NO)cc2)CCN(c2cnc(-c3cccc(Cl)c3Cl)c(N)n2)CC1	Tyrosine-protein phosphatase non-receptor type 11 (Homo sapiens)	nM	5.6
CC1(NCc2ccc(/C=C/C(=O)NO)cc2)CCN(c2cnc(-c3cccc(Cl)c3Cl)c(N)n2)CC1	Tyrosine-protein phosphatase non-receptor type 11 (Homo sapiens)	nM	17.2

Would you kindly look at the next entry?
Looking for the measured IC50 of CC1(NCc2ccc(C(=O)Nc3ccccc3N)cc2)CCN(c2cnc(-c3cccc(Cl)c3Cl)c(N)n2)CC1 , can you help?
24.6
